# system_name: FXR (Homo sapiens)
# Construct: 5 μL of 20 nM FXR-LBD Complete Coregulator buffer G; purchased ThermoFisher PV4833
# Sequence (Q96RI1 262-486 limits assumed): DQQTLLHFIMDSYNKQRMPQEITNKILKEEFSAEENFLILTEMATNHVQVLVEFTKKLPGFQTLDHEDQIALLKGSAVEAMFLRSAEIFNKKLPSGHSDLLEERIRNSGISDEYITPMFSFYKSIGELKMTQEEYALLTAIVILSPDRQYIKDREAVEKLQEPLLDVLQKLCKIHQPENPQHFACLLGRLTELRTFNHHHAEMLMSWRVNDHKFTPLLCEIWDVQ
# protocol_text: FXR antagonist screening by TR-FRET (LanthaScreen TR-FRET FXR co-activation assay kit)
# Format: biochemical
# test_settings: Table 1.2, FXR antagonistic activity; TR-FRET with CDCA; geometric means of at least two independent runs
pIC50: −log10 of the molar value.
Catalogue of molecules with associated pIC50

{"columns": ["molecule", "pIC50"],
 "data": [
  ["Cc1c(C(=O)O)sc2ccc(S(=O)(=O)N(CCc3ccc(Cl)cc3)c3ccccc3N3CCN(C(=O)c4sccc4Br)CC3)cc12 [Example F27-S166]", "5.00 to 7.00"],
  ["Cc1ccc(C(=O)N2CCN(c3ccccc3N(CCc3ccccc3)S(=O)(=O)c3ccc4oc(C(=O)O)c(C)c4c3)CC2)cc1C [Example F27-S132]", "5.00 to 7.00"],
  ["CCOC(=O)c1oc2ccc(S(=O)(=O)N(CCc3ccccc3)c3ccccc3N3CC4CC(C3)N4C(=O)c3sccc3Br)cc2c1C [Example M10-151]", "4.00 to 4.30"],
  ["Cc1c(C(=O)O)oc2ccc(S(=O)(=O)N(CCc3ccccc3)c3ccccc3N3CCN(C(=O)c4cccnc4)CC3)cc12 [Example F27-S116]", "5.00 to 7.00"],
  ["CCOC(=O)c1sc2ccc(S(=O)(=O)N(Cc3ccccc3)c3ccccc3N3CCN(C(=O)c4sccc4Br)CC3)cc2c1C [Example M10-181]", "4.00 to 4.30"],
  ["CCOC(=O)c1oc2ccc(S(=O)(=O)N(CCc3ccccc3)c3ccccc3N3CC4CC3CN4C(=O)c3sccc3Br)cc2c1C (stereo not drawn) [Example M10-157]", "4.00 to 4.30"]
]}
